- PROCEDURE DETAILS: MTT cell viability / cytotoxicity on normal fibroblasts
- Assay type: cell-based, mouse
- CONDITION SUMMARY: mouse, NCTC clone 929 (L929) mouse fibroblast cells, 12.5 µg/mL, 48h
VALUE TYPE: viability at 48 h, 12.5 µg/mL (%)
Give the value, in units of %, as a plain number.

May I ask what viability at 48 h, 12.5 µg/mL has been recorded for Cc1nn(CNc2ccc(Br)cc2)c(C)c1[N+](=O)[O-] [4c] ? 97.2

May I ask what viability at 48 h, 12.5 µg/mL has been recorded for Cc1nn(CNc2ccccc2Cl)c(C)c1[N+](=O)[O-] [4f] ? 103

May I ask what viability at 48 h, 12.5 µg/mL has been recorded for Cc1nn(CNc2ccc(F)cc2)c(C)c1[N+](=O)[O-] [4a] ? 101

May I ask what viability at 48 h, 12.5 µg/mL has been recorded for Cc1nn(CNc2ccc(Cl)cc2)c(C)c1[N+](=O)[O-] [4b] ? 89.7

May I ask what viability at 48 h, 12.5 µg/mL has been recorded for Cc1nn(CNc2ccc(I)cc2)c(C)c1[N+](=O)[O-] [4d] ? 92.6

May I ask what viability at 48 h, 12.5 µg/mL has been recorded for Cc1nn(CNc2cccc(Cl)c2)c(C)c1[N+](=O)[O-] [4e] ? 93.2

---

- PROCEDURE DETAILS: MTT cell viability / cytotoxicity on normal fibroblasts
- Format: cell-based, mouse
- CONDITION SUMMARY: mouse; 12.5 µg/mL, 48h; read-out: Cell viability on NCTC cells (%)
VALUE TYPE: viability at 48 h, 12.5 µg/mL
The answer should read as a number with its unit following.

May I ask what viability at 48 h, 12.5 µg/mL has been recorded for Cc1nn(CN(Cn2nc(C)c([N+](=O)[O-])c2C)c2ccc(Br)cc2)c(C)c1[N+](=O)[O-] [5c] ? 97.4%

May I ask what viability at 48 h, 12.5 µg/mL has been recorded for Cc1nn(CN(Cn2nc(C)c([N+](=O)[O-])c2C)c2ccc(F)cc2)c(C)c1[N+](=O)[O-] [5a] ? 98.2%

May I ask what viability at 48 h, 12.5 µg/mL has been recorded for Cc1nn(CN(Cn2nc(C)c([N+](=O)[O-])c2C)c2ccc(I)cc2)c(C)c1[N+](=O)[O-] [5d] ? 102%

May I ask what viability at 48 h, 12.5 µg/mL has been recorded for Cc1nn(CN(Cn2nc(C)c([N+](=O)[O-])c2C)c2cccc(Cl)c2)c(C)c1[N+](=O)[O-] [5e] ? 69.2%

---

- PROCEDURE DETAILS: MTT cell viability / cytotoxicity on normal fibroblasts
- Assay type: cell-based, mouse
- CONDITION SUMMARY: mouse; 50 µg/mL, 48h; read-out: Cell viability on NCTC cells (%)
I'd be grateful if you could share measured viability at 48 h, 50 µg/mL for these entries.
The answer should read as a number with its unit following.

May I ask what viability at 48 h, 50 µg/mL has been recorded for Cc1nn(CN(Cn2nc(C)c([N+](=O)[O-])c2C)c2cccc(Cl)c2)c(C)c1[N+](=O)[O-] ? 26.4%

May I ask what viability at 48 h, 50 µg/mL has been recorded for Cc1nn(CN(Cn2nc(C)c([N+](=O)[O-])c2C)c2ccc(I)cc2)c(C)c1[N+](=O)[O-] ? 88.3%

May I ask what viability at 48 h, 50 µg/mL has been recorded for Cc1nn(CN(Cn2nc(C)c([N+](=O)[O-])c2C)c2ccc(F)cc2)c(C)c1[N+](=O)[O-] ? 92.5%

May I ask what viability at 48 h, 50 µg/mL has been recorded for Cc1nn(CN(Cn2nc(C)c([N+](=O)[O-])c2C)c2ccc(Cl)cc2)c(C)c1[N+](=O)[O-] ? 28.1%

May I ask what viability at 48 h, 50 µg/mL has been recorded for Cc1nn(CN(Cn2nc(C)c([N+](=O)[O-])c2C)c2ccc(Br)cc2)c(C)c1[N+](=O)[O-] ? 68%

May I ask what viability at 48 h, 50 µg/mL has been recorded for C[C@@H]1CC[C@@]2(OC1)O[C@H]1C[C@H]3[C@@H]4CC=C5C[C@@H](O[C@@H]6O[C@H](CO)[C@@H](O[C@@H]7O[C@@H](C)[C@H](O)[C@@H](O)[C@H]7O)[C@H](O)[C@H]6O[C@@H]6O[C@@H](C)[C@H](O)[C@@H](O)[C@H]6O)CC[C@]5(C)[C@H]4CC[C@]3(C)[C@H]1[C@@H]2C [dioscin, reference compound] ? 7.14%
